biological target: human 20S immunoproteasome (i20S) (Homo sapiens); test: 20S proteasome assay, chymotrypsin-like activity (succinyl-Leu-Leu-Val-Tyr-AMC), i20S; assay type: biochemical; settings: LLVY substrate, 1 h continuous
QUANTITY: IC50 (nM)
Please respond with the number in nM and leave the unit unwritten.

Look over these answered cases.
INSERT INTO measurements (molecular_string, target_desc, endpoint_result) VALUES
  ('COc1ccc(C[C@H](NC(=O)[C@@H](C)NC(=O)C2COC2)C(=O)N[C@@H](CC2=CCCC2)C(=O)[C@@]2(C)CO2)cc1', 'human 20S immunoproteasome (i20S) (Homo sapiens)', 149),
  ('COc1ccc(C[C@H](NC(=O)[C@H](C)NC(=O)CN2CCC(C(F)(F)F)CC2)C(=O)N[C@@H](CC2CCCC2)C(=O)[C@@]2(C)CO2)cc1', 'human 20S immunoproteasome (i20S) (Homo sapiens)', 438),
  ('COc1ccc(C[C@H](NC(=O)[C@@H](C)NC(=O)C2CCOCC2)C(=O)N[C@@H](CC2CCCC2)C(=O)[C@@]2(C)CO2)cc1', 'human 20S immunoproteasome (i20S) (Homo sapiens)', 53.8);

Note: attention shifts to another entry.
// sample COc1ccc(C[C@H](NC(=O)[C@H](CO)NC(=O)CN2CCOCC2)C(=O)N[C@@H](Cc2ccccc2)C(=O)[C@@]2(C)CO2)cc1 , its IC50 was 43
